assay-explanation: Restrictive medium S. cerevisiae growth inhibition, OD615, pilot screen of yeast lifespan reduction project, restrictive growth control (AID 706);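 also: modified DeaD lifespan yeast strain shifted to restrictive glucose medium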
test-settings: OD615, 48 h, at 10 µM, active compounds read high
Please go through the items and note down their growth inhibition.
Give bare numbers, in %.

compound | unit-abbreviation | growth inhibition
Cn1c(Cn2c(=O)sc3ccccc32)nnc1SCC(=O)N1CCCCCC1 | % | -23.5
CC(C)(C)SCCNS(=O)(=O)c1ccc(F)cc1 | % | 3.38
COc1ccccc1CNC(=O)c1nnc(Cc2ccc(Cl)cc2)o1 | % | 15.4

Could you report growth inhibition for every entry in the following list?
1. O=C(Nc1ccncc1)c1ccc2c(c1)OCCO2
2. COc1ccc(CN2CCCC2C(=O)Nc2ccc(OC)c(OC)c2)cc1OC (stereo not drawn)
3. O=C(NCc1ccc(Cl)cc1)c1cccnc1
4. O=c1cc(N2CCOCC2)[nH]c(=O)n1-c1ccc(Cl)cc1
5. Cc1nn(-c2ccc(Cl)cc2)c2sc(C(=O)N3CCN(C(=O)c4ccco4)CC3)cc12
6. COc1ccc(S(=O)(=O)N2CCN(CCO)CC2)cc1-c1nnc2c3ccccc3c(C)nn12
7. Cc1ccnc(SCCn2c(N(C)Cc3ccccc3)nc3c2c(=O)n(C)c(=O)n3C)n1
8. CCC/C(O)=C1\C(=O)CC(C)(C)CC1=NCCO

Data returned:
1. -11.1
2. -5.92
3. 9.27
4. -6.01
5. -10.7
6. -6.93
7. -13
8. 11.1
